Data credit: patent US20210330611A1

tested on: primary rat microglia; experiment: Cell toxicity (dead cells, size <150 μm2) in LPS assay; conditions: primary microglia HTS, LPS stimulation, toxicity = cell size <150 μm2
Where a name gives a salt, the structure may show the parent alone.
observationType: LPS % cell toxicity (%)
Answers are plain numbers, in %.

INSERT INTO results (compound, assayedsystem, valueobserved) VALUES
  ('CNC(=O)c1c(I)c(NC(C)=O)c(I)c(C(=O)O)c1I [Iothalamic Acid]', 'primary rat microglia', 0);

Please go through the list and note LPS % cell toxicity for each compound.
1. O=C1O[C@H](CO)[C@@H](O)[C@H](O)[C@H]1O [Gluconolactone]
2. CN1CCc2cc3c(cc2C1O)OCO3 (centres unmarked) [Hydrastinine Hydrochloride]
3. N=C(N)N/N=C/c1c(Cl)cccc1Cl [Guanabenz Acetate]
4. C1N2CN3CN1CN(C2)C3 [Hexamethylenetetramine]
5. O=C1OC(CN2CCOCC2)CN1/N=C/c1ccc([N+](=O)[O-])o1 (centres unmarked) [Furaltadone]
6. CS(=O)(=O)c1ccc([C@@H](O)[C@@H](CF)NC(=O)C(Cl)Cl)cc1 [Florfenicol]
7. CC1=C(/C=C/C(C)=C/C=C/C(C)=C/C(=O)Nc2ccc(O)cc2)C(C)(C)CCC1 [Fenretinide]
8. CC#CCC(C)[C@H](O)/C=C/[C@@H]1[C@H]2C/C(=C/CCCC(=O)O)C[C@H]2C[C@H]1O (some centres unmarked) [Iloprost]

-- reply
1. 0
2. 0
3. 0
4. 0
5. 0
6. 1
7. 0
8. 0

----------
test system: fibrin-induced microglia activation; test: Image-based assay of fibrin-induced microglia activation (HTS and dose response); format: cell-based, rat; conditions: Rattus norvegicus, Microglia, fibrin-induced microglia activation, dose response; read-out: Fibrin IC50 (uM) (Suppl. Table 7)
Where a name gives a salt, the structure may show the parent alone.
Consider the following compounds; for each one, report its IC50.
One number for each entry, in µM.

INSERT INTO results (compound, observationtype, valueobserved) VALUES
  ('CC[C@]1(O)C[C@@H]2CN(CCc3c([nH]c4ccccc34)[C@@](C(=O)OC)(c3cc4c(cc3OC)N(C)[C@H]3[C@@](O)(C(=O)OC)[C@H](OC(C)=O)[C@]5(CC)C=CCN6CC[C@]43[C@@H]65)C2)C1 [Vinblastine sulfate, reference compound]', 'IC50', 0.02),
  ('CCN(CC)C(=O)C1(c2ccccc2)CC1CN (stereo not shown) [Milnacipran hydrochloride, reference compound]', 'IC50', 8);

Kindly review the next compound as well.
-- ask Name the recorded IC50 for CN(C)CCCOc1nn(Cc2ccccc2)c2ccccc12 [Benzydamine hydrochloride, reference compound] .
-- reply 6

----------
assay: in vitro; details: rat, Cell Toxicity IC50 (uM) [cFib assay], cFib assay
observationType: IC50

Below, each entry is followed by its recorded IC50 result.
INSERT INTO assay_data (compound, observationtype, valueobserved) VALUES
  ('C[C@]12C=CC(=O)C=C1CC[C@@H]1[C@@H]2C(=O)C[C@@]2(C)[C@H]1CC[C@]2(O)C(=O)CO [Prednisone, reference compound]', 'IC50', '> 20 µM'),
  ('COc1c(C)c2c(c(O)c1C/C=C(\C)CCC(=O)OCCN1CCOCC1)C(=O)OC2 [Mycophenolate mofetil, reference compound]', 'IC50', '> 20 µM');

Kindly review the next compound as well.
-- ask Name the recorded IC50 for Nc1ccc(S(=O)(=O)Nc2cnc3ccccc3n2)cc1 [Sulfaquinoxaline sodium, reference compound] .
-- reply > 20 µM
